target: Muscarinic acetylcholine receptor M3 (Homo sapiens, UniProt P20309)
Sequence (P20309 whole entry): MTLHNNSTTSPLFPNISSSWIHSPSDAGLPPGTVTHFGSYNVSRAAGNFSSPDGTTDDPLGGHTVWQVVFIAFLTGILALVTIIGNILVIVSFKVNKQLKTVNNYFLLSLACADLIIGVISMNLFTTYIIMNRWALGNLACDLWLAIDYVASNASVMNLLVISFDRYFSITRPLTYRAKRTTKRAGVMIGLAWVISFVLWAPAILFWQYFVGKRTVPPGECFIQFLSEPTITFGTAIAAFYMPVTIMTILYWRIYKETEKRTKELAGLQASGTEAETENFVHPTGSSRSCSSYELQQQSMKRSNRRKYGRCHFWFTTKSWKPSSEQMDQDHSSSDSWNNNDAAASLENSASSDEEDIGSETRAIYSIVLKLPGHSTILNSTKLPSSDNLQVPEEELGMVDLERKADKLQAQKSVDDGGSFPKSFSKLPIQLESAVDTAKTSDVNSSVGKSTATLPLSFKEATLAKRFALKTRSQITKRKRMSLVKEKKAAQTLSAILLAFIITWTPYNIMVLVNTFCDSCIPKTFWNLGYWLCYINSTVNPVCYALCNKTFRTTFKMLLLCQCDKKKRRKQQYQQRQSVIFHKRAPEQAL
readoutKind: log10 of Ki (log10 of the value in nM)

compound: NCCCCCCCCCCN1CCC(OC(=O)Nc2ccccc2-c2ccccc2)CC1
reported: 0.20

compound: C[N+]1(CCCCCCCCCNC[C@H](O)c2ccc(O)c3[nH]c(=O)ccc23)[C@@H]2C[C@H](OC(=O)C(O)(c3cccs3)c3cccs3)C[C@@H]1[C@H]1O[C@H]12 (some centres undefined)
reported: 0.66

compound: O=C(Nc1ccccc1-c1ccccc1)NC1CCN(CCCCCCCCCNCC(O)c2ccc(O)c3[nH]c(=O)ccc23)CC1 (centres undefined)
reported: 0.88

compound: CCN1CCC(OC(=O)Nc2ccccc2-c2ccccc2)CC1
reported: 1.74

compound: O=CNc1cc([C@@H](O)CNCCCCCCCCCN2CCC(OC(=O)Nc3ccccc3-c3ccccc3)CC2)ccc1O
reported: -0.85

compound: NCCCCCCCN1CCC(OC(=O)Nc2ccccc2-c2ccccc2)CC1
reported: -0.28

compound: NCCN1CCC(OC(=O)Nc2ccccc2-c2ccccc2)CC1
reported: 1.70

compound: NCCCCCCCCCCCN1CCC(OC(=O)Nc2ccccc2-c2ccccc2)CC1
reported: 0.40

compound: NCCCCN1CCC(OC(=O)Nc2ccccc2-c2ccccc2)CC1
reported: 1.92
